EXPERIMENTAL_DETAILS: Ratio of drug uptake in liver to plasma in Sprague-Dawley rat at 20 mg/kg, po administered as single dose
Type: ADME, organism-based
Design: dose 20 mg/kg, route oral
RESULT_TYPE: Kp
Lab note: jot down the number only; don't add units.

Sure, the documented Kp for O=C(O)Cc1cc(Br)c(N(Cc2ccc(Oc3ccc(F)cc3F)cc2)Cc2cc(F)cc(F)c2)c(Br)c1 is 24.8

###

Each entry below carries its recorded IC50.
STUDY_SYSTEM: Glucocorticoid receptor (Rattus norvegicus)
Sequence (P06536 whole entry): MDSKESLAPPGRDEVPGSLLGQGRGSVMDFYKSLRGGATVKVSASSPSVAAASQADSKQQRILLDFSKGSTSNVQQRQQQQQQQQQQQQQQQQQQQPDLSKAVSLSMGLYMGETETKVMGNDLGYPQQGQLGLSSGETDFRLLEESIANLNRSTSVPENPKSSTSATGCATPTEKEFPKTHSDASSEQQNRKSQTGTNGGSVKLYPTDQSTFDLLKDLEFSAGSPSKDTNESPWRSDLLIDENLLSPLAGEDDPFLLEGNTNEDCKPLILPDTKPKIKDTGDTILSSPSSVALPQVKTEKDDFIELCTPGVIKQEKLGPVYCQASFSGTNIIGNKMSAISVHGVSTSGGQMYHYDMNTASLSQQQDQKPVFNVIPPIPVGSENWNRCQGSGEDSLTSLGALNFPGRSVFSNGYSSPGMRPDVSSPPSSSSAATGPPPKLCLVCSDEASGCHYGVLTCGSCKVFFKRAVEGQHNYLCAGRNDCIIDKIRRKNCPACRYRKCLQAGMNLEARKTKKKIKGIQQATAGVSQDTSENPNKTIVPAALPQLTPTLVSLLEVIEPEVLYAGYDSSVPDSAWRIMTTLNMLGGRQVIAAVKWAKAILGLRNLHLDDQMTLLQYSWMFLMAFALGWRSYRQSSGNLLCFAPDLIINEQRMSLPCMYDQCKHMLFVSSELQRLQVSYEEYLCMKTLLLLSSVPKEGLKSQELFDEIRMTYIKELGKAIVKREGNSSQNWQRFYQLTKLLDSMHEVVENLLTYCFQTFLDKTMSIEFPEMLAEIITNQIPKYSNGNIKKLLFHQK
EXPERIMENTAL_DETAILS: Antagonist activity at glucocorticoid receptor in rat hepatocytes assessed as inhibition of dexamethasone-induced […] expression incubated for 30 mins prior to dexamethasone-induction measured after 4 hrs by reporter gene assay
Assay type: functional, cell-based, Hepatocyte
Kindly provide the numeric value in µM only, without the unit symbol.

| COMPOUND | RESULT_TYPE | RESULT |
| --- | --- | --- |
| COc1cc(C(=O)c2cccc(C)c2)c(Oc2c(Br)cc(CC(=O)O)cc2Br)cc1C(C)C | IC50 | 2.49 |

Could you now consider this next molecule?
Tested on Glucocorticoid receptor (Rattus norvegicus): O=C(O)Cc1cc(Br)c(N(Cc2ccc(Oc3ccccc3Cl)cc2)Cc2cc(F)cc(F)c2)c(Br)c1 . Observed IC50: 3
